Here the recorded pIC50 is given for each entry.
# SUBJECT_OF_TEST: HLA-B*3501 (human)
# PROTOCOL_DESCRIPTION: competition vs 125I-labeled standard peptide, purified HLA
pIC50: −log10 of the molar value.

BINDER	pIC50
FPYDGIPA (8-mer analog of the HER2/neu peptide starting at position 921) [Her2/neu.921.F1]	6.69
FPYDGIPI (8-mer analog of the HER2/neu peptide starting at position 921) [Her2/neu.921.F1I8]	6.42
FPYVSRLL (8-mer analog of the HER2/neu peptide starting at position 779; same label as the 10-mer in r56) [Her2/neu.779.F1, 8-mer]	6.22
FPSGAMPNQI (the label names only F1 though the C-terminus is I) [Her2/neu.701.F1]	5.18
FPIKWMAL (8-mer analog of the HER2/neu peptide starting at position 884; also called FPIKWMAL) [Her2/neu.884.F1]	6.61
FPIKWMAI (8-mer analog of the HER2/neu peptide starting at position 884) [Her2/neu.884.F1I8]	5.94
FPYVSRLLGI (10-mer analog of the HER2/neu peptide starting at position 779; same label as the 8-mer in r55) [Her2/neu.779.F1, 10-mer]	5.44
FPNQAQMRIL (10-mer analog of the HER2/neu peptide starting at position 706; same label as the 9-mer in r49) [Her2/neu.706.F1, 10-mer]	6.70
FPLTSIISI (9-mer analog of the HER2/neu peptide starting at position 649) [Her2/neu.649.F1I9]	6.93
FPNQAQMRI (9-mer analog of the HER2/neu peptide starting at position 706; same label as the 10-mer in r51) [Her2/neu.706.F1, 9-mer]	6.97
MPYGCLLDHVI (11-mer analog of the HER2/neu peptide starting at position 801) [Her2/neu.801.I11]	8.38
FPLTSIISAVI (11-mer analog of the HER2/neu peptide starting at position 649) [Her2/neu.649.F1I11]	7.02
FPLTPSGAM (9-mer analog of the HER2/neu peptide starting at position 698) [Her2/neu.698.F1]	7.80
MPNQAQMRILI (11-mer analog of the HER2/neu peptide starting at position 706) [Her2/neu.706.I11]	5.74
FPLTSIISAV (10-mer analog of the HER2/neu peptide starting at position 649; same label as the 9-mer in r40) [Her2/neu.649.F1, 10-mer]	6.52
FPAEQRASPL (10-mer analog of the HER2/neu peptide starting at position 642) [Her2/neu.642.F1]	6.61
